- test details: In vitro binding using synthetic aggregated Abeta(1-40) fibrils
endpoint: Ki (nM)
Provide the reading as a plain figure in nM.

In: Answer with the recorded Ki for the compound listed here: "CNc1ccc(-c2nc3ccc(C)cc3s2)cc1"
Out: 10
